- experimental-system: Gal(b1-3)[Neu5Ac(a2-6)]GalNAc
- experimental-protocol: glycan array binding signal (z-score within array); higher = stronger binding
- run-parameters: glycan notation: IUPAC condensed, linker removed
The entries come from a sample that favours the strongest signals as a whole.
readout: glycan array binding signal (z-score)
# output: bare number, no unit

Worked set:
binder | readout | reported-measurement
MGL1 (Mus musculus), P49300 (protein) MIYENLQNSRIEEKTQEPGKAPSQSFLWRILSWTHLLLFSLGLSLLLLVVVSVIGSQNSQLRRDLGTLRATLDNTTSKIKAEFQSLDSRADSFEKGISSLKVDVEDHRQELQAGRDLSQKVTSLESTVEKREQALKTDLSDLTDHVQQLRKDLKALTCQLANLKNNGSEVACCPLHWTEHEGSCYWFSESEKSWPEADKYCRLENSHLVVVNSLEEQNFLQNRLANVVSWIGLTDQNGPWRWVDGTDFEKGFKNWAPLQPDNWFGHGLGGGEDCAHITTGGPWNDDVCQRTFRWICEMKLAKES | glycan array binding signal (z-score) | -0.361
PhypaEULS3 (Physcomitrella patens) (protein) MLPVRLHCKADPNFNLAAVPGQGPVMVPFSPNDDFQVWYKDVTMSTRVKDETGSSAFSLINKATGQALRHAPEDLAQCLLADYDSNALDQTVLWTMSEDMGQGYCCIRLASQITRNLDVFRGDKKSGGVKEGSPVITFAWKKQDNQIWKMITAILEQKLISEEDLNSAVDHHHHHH | glycan array binding signal (z-score) | -0.203

Continue with the next binder.
Please report the recorded glycan array binding signal (z-score) for LTL (Lotus tetragonolobus), P19664 (protein) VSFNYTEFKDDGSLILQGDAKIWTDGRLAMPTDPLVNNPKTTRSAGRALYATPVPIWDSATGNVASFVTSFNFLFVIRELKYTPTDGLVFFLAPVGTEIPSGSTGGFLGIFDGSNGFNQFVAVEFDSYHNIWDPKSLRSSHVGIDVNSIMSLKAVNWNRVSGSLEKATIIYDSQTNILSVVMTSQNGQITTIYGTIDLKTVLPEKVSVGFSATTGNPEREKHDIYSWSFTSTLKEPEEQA .
-0.277
